- EXPERIMENTAL SYSTEM: ligand binding domain of human ROR gamma (Homo sapiens, UniProt P51449)
- Construct: NM_001001523; expressed in transfected cells; host or cells: HEK293T
- Sequence (P51449 247-497 isoform P51449-2): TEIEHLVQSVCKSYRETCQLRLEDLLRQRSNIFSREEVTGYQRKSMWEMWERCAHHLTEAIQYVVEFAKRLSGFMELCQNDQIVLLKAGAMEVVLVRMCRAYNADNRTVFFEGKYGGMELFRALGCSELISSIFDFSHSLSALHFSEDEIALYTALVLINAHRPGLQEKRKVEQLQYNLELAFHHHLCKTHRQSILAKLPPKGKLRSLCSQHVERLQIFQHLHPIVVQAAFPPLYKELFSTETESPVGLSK
- EXPERIMENT DESCRIPTION: ROR gamma reporter gene assay (GAL4-RORγ LBD luciferase, Dual-Glo)
- Assay type: cell-based
- ASSAY CONDITIONS: HEK293T cells transfected with pM-ROR gamma, 8 concentrations 3.5 nM to 10.5 μM, 24 h incubation; read-out: result (pIC50, inhibition of RORγ transcriptional activity) (converted)
Listing: IC50 of selected molecules
Write the answer as a number in pM, unit excluded.

// solved cases for IC50 follow
[
  {
    "MOLECULE": "O=C(CN(CC1CCC2(CC1)CC2)C(=O)c1cnn([C@H]2CC[C@H](C(=O)O)CC2)c1C(F)(F)F)c1c(Cl)cncc1Cl",
    "EXPERIMENTAL SYSTEM": "ligand binding domain of human ROR gamma (Homo sapiens, UniProt P51449)",
    "IC50 / pM": 18600
  },
  {
    "MOLECULE": "CC1(C)CCC(CN(CC(=O)c2c(Cl)cncc2Cl)C(=O)c2cnn([C@H]3CC[C@H](C(=O)O)CC3)c2C(F)(F)F)CC1",
    "EXPERIMENTAL SYSTEM": "ligand binding domain of human ROR gamma (Homo sapiens, UniProt P51449)",
    "IC50 / pM": 117000
  },
  {
    "MOLECULE": "CC1(C)CC[C@H](N(CC(=O)c2c(Cl)cncc2Cl)C(=O)c2cnn([C@H]3CC[C@H](C(=O)O)CC3)c2C(F)(F)F)C1 [Example 184]",
    "EXPERIMENTAL SYSTEM": "ligand binding domain of human ROR gamma (Homo sapiens, UniProt P51449)",
    "IC50 / pM": 162000
  },
  {
    "MOLECULE": "CC1(C)CCC(N(CC(=O)c2c(Cl)cc(F)cc2Cl)C(=O)c2cnn([C@H]3CC[C@](C)(C(=O)O)CC3)c2Cl)CC1",
    "EXPERIMENTAL SYSTEM": "ligand binding domain of human ROR gamma (Homo sapiens, UniProt P51449)",
    "IC50 / pM": 26300
  },
  {
    "MOLECULE": "CC1(C)CCC(N(CC(=O)c2c(Cl)cc(F)cc2Cl)C(=O)c2cnn([C@H]3CC[C@](C)(C(=O)O)CC3)c2C(F)(F)F)CC1",
    "EXPERIMENTAL SYSTEM": "ligand binding domain of human ROR gamma (Homo sapiens, UniProt P51449)",
    "IC50 / pM": 8320
  }
]

Looking up CC(C)(C)CN(CC(=O)c1c(Cl)cc(F)cc1Cl)C(=O)c1cnn(C23CCC(C(=O)O)(CC2)CC3)c1C(F)(F)F , I see its IC50 listed as 8910
